B1: library; numbered along this chain (parent)
chain: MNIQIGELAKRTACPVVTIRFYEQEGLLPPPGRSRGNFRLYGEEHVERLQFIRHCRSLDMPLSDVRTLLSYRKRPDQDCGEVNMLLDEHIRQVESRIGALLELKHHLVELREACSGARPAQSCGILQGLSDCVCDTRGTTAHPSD

- Variants of: B1
- assayProcedure: sfGFP reporter fluorescence (15 h) (µM FITC); higher = higher leak
- testConditions: library round: Round 0; ligand: none
Hi, to clarify the labels: 1 (yes) covers sfGFP reporter fluorescence from 0.06 upward, 0 (no) covers anything below 0.06.

mutationKey: C123G
discreteLabel: 0 (no)

mutationKey: I97N
discreteLabel: 0 (no)

mutationKey: R118A
discreteLabel: 1 (yes)

mutationKey: L129Y
discreteLabel: 0 (no)
